Kindly state IC50 for each of the entries shown.
# ASSAYED TARGET: GST-RIPK2 fusion protein (human RIPK2 amino acids 1-310) (Homo sapiens (Human), UniProt O43353)
# Sequence (O43353 1-310): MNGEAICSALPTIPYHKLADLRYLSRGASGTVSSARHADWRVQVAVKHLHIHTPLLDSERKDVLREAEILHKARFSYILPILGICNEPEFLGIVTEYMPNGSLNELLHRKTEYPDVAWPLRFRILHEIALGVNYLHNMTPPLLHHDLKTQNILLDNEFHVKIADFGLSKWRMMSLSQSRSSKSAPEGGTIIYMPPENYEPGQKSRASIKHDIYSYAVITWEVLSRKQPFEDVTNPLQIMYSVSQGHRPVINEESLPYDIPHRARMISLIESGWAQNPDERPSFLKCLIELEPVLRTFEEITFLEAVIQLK
# ASSAY DETAILS: RIPK2 binding competition assay (TR-FRET, Tracer 199)

Incoming: # return recorded IC50 for entry COc1cc2ncc(-c3cc(OC)c(N)nc3F)n2cc1S(=O)(=O)C(C)(C)C [Example 74]
Outgoing: 2.5 to 20 nM

Incoming: Give a short answer stating reported IC50 for CCOc1cc2ncc(-c3cc(Cl)c(N)nc3F)n2cc1S(=O)(=O)C(C)C [Example 118] .
Outgoing: 2.5 to 20 nM

Incoming: Return IC50 (reported value) for this molecule: COc1cc2ncc(-c3cc(F)c(OC)c(Br)c3)n2cc1S(=O)(=O)C(C)(C)C [Example 305]
Outgoing: 2.5 to 20 nM

Incoming: Please report IC50 for the following molecule: COc1cc2ncc(-c3cc(F)c(OC)c(C(C)(C)O)c3)n2cc1S(=O)(=O)C(C)(C)C [Example 337]
Outgoing: 1 to 2.5 nM

Incoming: Retrieve IC50 measured for CC(C)(C)S(=O)(=O)c1ccc2ncc(-c3cc(N)nc(F)c3)n2c1 [Example 330] and print it.
Outgoing: 2.5 to 20 nM

Incoming: Complete the entry with IC50 for COc1cc2ncc(-c3cc(F)nc(N4CCC(O)CC4)c3)n2cc1S(=O)(=O)C(C)(C)C [Example 207]
Outgoing: 1 to 2.5 nM

Incoming: Tell us which IC50 value is on record for CCOc1cn2ncc(-c3cc(Cl)c(N)nc3F)c2cc1S(=O)(=O)C(C)(C)C [Example 114]
Outgoing: 1 to 2.5 nM

Incoming: Name the recorded IC50 of the item COc1cc2ncc(-c3cc(N)cc(OC(F)F)c3)n2cc1S(=O)(=O)C(C)(C)C [Example 42] in your answer.
Outgoing: 2.5 to 20 nM

###

# ASSAYED TARGET: GST-RIPK2 fusion protein (human RIPK2 amino acids 1-310) (Homo sapiens (Human))
# ASSAY DETAILS: RIPK2 binding competition assay (TR-FRET, Tracer 199)
pIC50: −log10 of the molar value.
REPORTED PROPERTY: pIC50

Incoming: Recall the reported pIC50 of COc1cc2ncc(-c3cc(F)nc(N[C@@H]4CCCC[C@H]4O)c3)n2cc1S(=O)(=O)C(C)(C)C (single isomer, unassigned) on GST-RIPK2 fusion protein (human RIPK2 amino acids 1-310) (Homo sapiens (Human)) and write it down.
Outgoing: 7.70 to 8.60

Incoming: Give reported pIC50 for COc1cc2ncc(-c3cc(F)nc(N[C@H]4C[C@H](OC)C4)c3)n2cc1S(=O)(=O)C(C)(C)C (GST-RIPK2 fusion protein (human RIPK2 amino acids 1-310) (Homo sapiens (Human)))
Outgoing: 8.60 to 9.00

Incoming: Recall the reported pIC50 of COc1cc2ncc(-c3ccc(OC(F)F)c(N)c3)n2cc1S(=O)(=O)C(C)(C)C when tested on GST-RIPK2 fusion protein (human RIPK2 amino acids 1-310) (Homo sapiens (Human)).
Outgoing: 7.70 to 8.60

Incoming: Consider the compound COc1cc2ncc(-c3cccc(NS(=O)(=O)C(C)(C)C)c3)n2cc1S(=O)(=O)C(C)(C)C tested on GST-RIPK2 fusion protein (human RIPK2 amino acids 1-310) (Homo sapiens (Human)); state its pIC50.
Outgoing: 7.70 to 8.60
